For each of the sequences below, state its binding signal.
Molecular target: BATF2 (bZIP);JUNB (human;human, UniProt Q8N1L9;P17275 1-142;148-347, |)
Sequence 1: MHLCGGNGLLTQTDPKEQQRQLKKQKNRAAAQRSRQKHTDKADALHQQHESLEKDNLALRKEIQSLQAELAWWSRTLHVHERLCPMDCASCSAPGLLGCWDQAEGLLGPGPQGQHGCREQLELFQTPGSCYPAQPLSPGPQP
Sequence 2: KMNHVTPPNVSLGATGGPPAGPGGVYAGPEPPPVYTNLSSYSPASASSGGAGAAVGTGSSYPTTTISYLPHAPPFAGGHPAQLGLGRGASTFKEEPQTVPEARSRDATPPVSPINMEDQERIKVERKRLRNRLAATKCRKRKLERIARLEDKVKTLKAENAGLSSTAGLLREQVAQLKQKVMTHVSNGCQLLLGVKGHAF
Experiment: Spec-seq (EMSA and sequencing of bound and unbound bands); 100 nM BATFx-JUNB, 1 uM dsDNA library, 50 mM K acetate, 20 mM Tris-acetate, 10 mM Mg acetate, 100 ug/ml BSA, pH 7.9, 10% glycerol, 30 min on ice; native 9% PAGE at 4 C; low values mean tight binding
Conditions: protein: recombinant;recombinant; tags: N-terminal mCherry-TEV, cleaved off;C-terminal 6His; copies: 1;1; dsDNA, one strand shown
Give bare numbers, in kT.

// below: answered sequences
sequence-content: GATAGTCTCATTTTCACCCCGTGAAATGACTCCTTTGTTCCATTACAGTATCTGT
binding signal, kT: 0.734

sequence-content: GATAGTCTCATTTTCACCCCGTGAAATGAGACAATTGTTCCATTACAGTATCTGT
binding signal, kT: 1.52

sequence-content: GATAGTCTCATTTTCACCCCGTGAAATGACGTCCTTGTTCCATTACAGTATCTGT
binding signal, kT: 0.602

sequence-content: GATAGTCTCATTTTCACCCCGTGAAATGAGTCAATTGTTCCATTACAGTATCTGT
binding signal, kT: 0.156

sequence-content: GATAGTCTCATTTTCACCCCGTGAAATGACTCTGTTGTTCCATTACAGTATCTGT
binding signal, kT: 0.667

Please state, for each entry, its recorded binding signal.
1. GATAGTCTCATTTTCACCCCGTGAAATGACTTATTTGTTCCATTACAGTATCTGT
2. GATAGTCTCATTTTCACCCCGTGAAATGAGGCACTTGTTCCATTACAGTATCTGT
3. GATAGTCTCATTTTCACCCCGTGAAATGACGCCATTGTTCCATTACAGTATCTGT
4. GATAGTCTCATTTTCACCCCGTGAAATGACCCAGTTGTTCCATTACAGTATCTGT

[reply]
0.489
1.32
0.257
1.09

====

Biological target: BATF2 (bZIP);JUNB (human;human, UniProt Q8N1L9;P17275 1-142;148-347, |)
Sequence 1: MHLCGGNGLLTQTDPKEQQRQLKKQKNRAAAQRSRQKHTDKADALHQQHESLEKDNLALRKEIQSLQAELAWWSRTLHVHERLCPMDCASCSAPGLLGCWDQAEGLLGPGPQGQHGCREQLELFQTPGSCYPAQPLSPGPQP
Sequence 2: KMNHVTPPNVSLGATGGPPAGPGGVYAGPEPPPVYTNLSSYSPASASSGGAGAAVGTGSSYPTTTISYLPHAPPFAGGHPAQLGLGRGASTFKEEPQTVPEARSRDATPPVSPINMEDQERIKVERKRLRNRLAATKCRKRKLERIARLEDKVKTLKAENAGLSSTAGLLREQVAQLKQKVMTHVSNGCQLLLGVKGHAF
Test: Spec-seq (EMSA and sequencing of bound and unbound bands); 100 nM BATFx-JUNB, 1 uM dsDNA library, 50 mM K acetate, 20 mM Tris-acetate, 10 mM Mg acetate, 100 ug/ml BSA, pH 7.9, 10% glycerol, 30 min on ice; native 9% PAGE at 4 C; low values mean tight binding
Conditions: protein: recombinant;recombinant; tags: N-terminal mCherry-TEV, cleaved off;C-terminal 6His; copies: 1;1; dsDNA, one strand shown
readout-label: binding signal (kT)
Give bare numbers, in kT.

sequence-content: GATAGTCTCATTTTCACCCCGTGAAATGACGGCATTGTTCCATTACAGTATCTGT
quantitative-result: 0.419
//
sequence-content: GATAGTCTCATTTTCACCCCGTGAAATGACGTCATTGTTCCATTACAGTATCTGT
quantitative-result: -1.32
//
sequence-content: GATAGTCTCATTTTCACCCCGTGAAATGACTCTATTGTTCCATTACAGTATCTGT
quantitative-result: 0.602
//
sequence-content: GATAGTCTCATTTTCACCCCGTGAAATGAATCATTTGTTCCATTACAGTATCTGT
quantitative-result: -0.323
//
sequence-content: GATAGTCTCATTTTCACCCCGTGAAATGAGTCTCTTGTTCCATTACAGTATCTGT
quantitative-result: 1.09

Please state, for each entry, its recorded binding signal.
1. GATAGTCTCATTTTCACCCCGTGAAATGACGTCGTTGTTCCATTACAGTATCTGT
2. GATAGTCTCATTTTCACCCCGTGAAAGTAAGTCATTGTTCCATTACAGTATCTGT
3. GATAGTCTCATTTTCACCCCGTGAAATGGCTCATTTGTTCCATTACAGTATCTGT
4. GATAGTCTCATTTTCACCCCGTGAAATGCCGTCATTGTTCCATTACAGTATCTGT

[reply]
1: 0.27; 2: 0.203; 3: 1.11; 4: 0.122

====

Target: BATF2 (bZIP);JUNB (human;human, UniProt Q8N1L9;P17275 1-142;148-347, |)
Sequence 1: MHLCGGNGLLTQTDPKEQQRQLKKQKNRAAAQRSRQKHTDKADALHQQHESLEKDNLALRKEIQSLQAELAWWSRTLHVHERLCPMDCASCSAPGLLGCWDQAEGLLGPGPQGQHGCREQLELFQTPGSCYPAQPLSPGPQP
Sequence 2: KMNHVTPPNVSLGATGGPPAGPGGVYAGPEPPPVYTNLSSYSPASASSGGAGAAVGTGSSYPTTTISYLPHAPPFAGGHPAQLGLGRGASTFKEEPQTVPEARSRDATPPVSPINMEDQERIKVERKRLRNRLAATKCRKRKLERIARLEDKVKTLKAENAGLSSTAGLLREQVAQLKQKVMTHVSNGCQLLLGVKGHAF
Experiment: Spec-seq (EMSA and sequencing of bound and unbound bands); 100 nM BATFx-JUNB, 1 uM dsDNA library, 50 mM K acetate, 20 mM Tris-acetate, 10 mM Mg acetate, 100 ug/ml BSA, pH 7.9, 10% glycerol, 30 min on ice; native 9% PAGE at 4 C; low values mean tight binding
Settings: protein: recombinant;recombinant; tags: N-terminal mCherry-TEV, cleaved off;C-terminal 6His; copies: 1;1; dsDNA, one strand shown
readout-label: binding signal (kT)
Answers are plain numbers, in kT.

sequence-content: GATAGTCTCATTTTCACCCCGTGAAAATGTGTCATTGTTCCATTACAGTATCTGT
binding signal (kT): -0.258

sequence-content: GATAGTCTCATTTTCACCCCGTGAAAGTCAGTCATTGTTCCATTACAGTATCTGT
binding signal (kT): 0.348

sequence-content: GATAGTCTCATTTTCACCCCGTGAAAATTAGTCATTGTTCCATTACAGTATCTGT
binding signal (kT): -0.658

sequence-content: GATAGTCTCATTTTCACCCCGTGAAATGACTCGATTGTTCCATTACAGTATCTGT
binding signal (kT): 0.519

sequence-content: GATAGTCTCATTTTCACCCCGTGAAATGACTCCGTTGTTCCATTACAGTATCTGT
binding signal (kT): 0.724

Please state, for each entry, its recorded binding signal.
1. GATAGTCTCATTTTCACCCCGTGAAATGGGTCATTTGTTCCATTACAGTATCTGT
2. GATAGTCTCATTTTCACCCCGTGAAATGACGTAATTGTTCCATTACAGTATCTGT
3. GATAGTCTCATTTTCACCCCGTGAAATGACGCAATTGTTCCATTACAGTATCTGT

[reply]
1. 0.704
2. -0.891
3. -0.276

====

For each of the sequences below, state its binding signal.
Molecular target: BATF2 (bZIP);JUNB (human;human, UniProt Q8N1L9;P17275 1-142;148-347, |)
Sequence 1: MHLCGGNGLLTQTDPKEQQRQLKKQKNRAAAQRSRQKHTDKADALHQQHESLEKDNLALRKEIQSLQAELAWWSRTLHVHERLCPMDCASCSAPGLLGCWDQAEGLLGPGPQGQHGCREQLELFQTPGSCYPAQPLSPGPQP
Sequence 2: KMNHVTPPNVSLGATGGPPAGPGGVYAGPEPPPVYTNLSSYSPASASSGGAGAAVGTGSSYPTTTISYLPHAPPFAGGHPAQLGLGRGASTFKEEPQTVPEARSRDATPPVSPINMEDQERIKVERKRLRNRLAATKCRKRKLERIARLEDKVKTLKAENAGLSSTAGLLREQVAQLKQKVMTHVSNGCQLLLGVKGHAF
Assay: Spec-seq (EMSA and sequencing of bound and unbound bands); 100 nM BATFx-JUNB, 1 uM dsDNA library, 50 mM K acetate, 20 mM Tris-acetate, 10 mM Mg acetate, 100 ug/ml BSA, pH 7.9, 10% glycerol, 30 min on ice; native 9% PAGE at 4 C; low values mean tight binding
Details: protein: recombinant;recombinant; tags: N-terminal mCherry-TEV, cleaved off;C-terminal 6His; copies: 1;1; dsDNA, one strand shown
Give bare numbers, in kT.

sequence-content: GATAGTCTCATTTTCACCCCGTGAAAGTGCGTCATTGTTCCATTACAGTATCTGT
unit-tag: kT
quantitative-result: -0.267

Please state, for each entry, its recorded binding signal.
1. GATAGTCTCATTTTCACCCCGTGAAATGAGACACTTGTTCCATTACAGTATCTGT
2. GATAGTCTCATTTTCACCCCGTGAAACTGTGTCATTGTTCCATTACAGTATCTGT
3. GATAGTCTCATTTTCACCCCGTGAAATGACTAATTTGTTCCATTACAGTATCTGT
4. GATAGTCTCATTTTCACCCCGTGAAATGACTCGCTTGTTCCATTACAGTATCTGT
5. GATAGTCTCATTTTCACCCCGTGAAACTCAGTCATTGTTCCATTACAGTATCTGT
6. GATAGTCTCATTTTCACCCCGTGAAATGACCTCATTGTTCCATTACAGTATCTGT

[reply]
1. 1.71
2. 0.116
3. 0.0427
4. 0.667
5. 0.236
6. 0.217
